# Study Target: muscarinic M3 receptor (Rattus norvegicus)
# Sequence (P08483 whole entry): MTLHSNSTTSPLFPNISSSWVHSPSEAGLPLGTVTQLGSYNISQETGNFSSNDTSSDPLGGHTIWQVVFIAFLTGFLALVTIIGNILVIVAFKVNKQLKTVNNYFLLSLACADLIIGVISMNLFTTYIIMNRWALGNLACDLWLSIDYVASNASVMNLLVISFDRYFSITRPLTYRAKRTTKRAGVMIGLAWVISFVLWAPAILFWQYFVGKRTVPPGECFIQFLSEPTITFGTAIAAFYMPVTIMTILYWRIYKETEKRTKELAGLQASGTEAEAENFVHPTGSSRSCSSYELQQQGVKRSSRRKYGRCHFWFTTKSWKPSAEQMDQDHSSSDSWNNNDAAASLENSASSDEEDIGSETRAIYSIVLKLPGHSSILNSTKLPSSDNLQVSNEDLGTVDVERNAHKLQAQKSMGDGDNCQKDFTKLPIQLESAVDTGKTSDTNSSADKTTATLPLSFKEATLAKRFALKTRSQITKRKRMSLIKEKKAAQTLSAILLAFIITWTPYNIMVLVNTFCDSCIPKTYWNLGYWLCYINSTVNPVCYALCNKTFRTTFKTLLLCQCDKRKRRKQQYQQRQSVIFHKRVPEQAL
# Protocol Summary: Inhibition of binding to muscarinic M3 receptors ([3H]-N-methylscopolamine, lacrimal gland membrane)
# Parameters: a membrane specimen from the lacrimal glands was used as the membrane specimen; from tissue; host or cells: rat lacrimal gland membranes (SD rat)
# Stated Conditions: ratio of binding Ki, M2 over M3
Record form. Attribute: M2/M3. Fill in for each entry.
Give bare numbers.

Here's what some known entries look like.
- Molecule: "CC[C@H](C)CCCN1CCC(NC(=O)[C@](O)(c2ccccc2)C2CCCC2)CC1.Cl"
  M2/M3: 270
- Molecule: "CC(C)=CCCN1CCC(NC(=O)C(O)(c2ccccc2)C2CCC2)CC1 (centres unmarked)"
  M2/M3: 96
- Molecule: "CC(C)=CCCN1CCC(NC(=O)C(O)(c2ccccc2)C2CCCC2)CC1 (centres unmarked)"
  M2/M3: 97

For every item below, please supply its M2/M3.
1. CC(C)=CCCN1CCC(NC(=O)[C@](O)(c2ccccc2)C2CCCC2)CC1.O=C(O)/C=C/C(=O)O
2. CC[C@H](C)CCCN1CCC(NC(=O)[C@](O)(c2ccccc2)C2CCC2)CC1.Cl

Result ::
96
152

----------
Would you mind telling me the reported Ki of each entry?
# Study Target: muscarinic M3 receptor (Rattus norvegicus)
# include the unit after the value

Take a look at these entries with their results.
- Compound: "O=C(NC1CCN(CC2CCCCC2)CC1)C(O)(c1ccccc1)C1CCCC1 (stereo not drawn)"
  Recorded Measurement: "11 nM"
- Compound: "CC(C)=CCCN1CCC(NC(=O)C(O)(c2ccccc2)C2CCC2)CC1 (stereo not drawn)"
  Recorded Measurement: "8.9 nM"
- Compound: "CC(C)=CCCN1CCC(NC(=O)[C@](O)(c2ccccc2)C2CCCC2)CC1.O=C(O)/C=C/C(=O)O [Example 28, fumarate]"
  Recorded Measurement: "2 nM"
- Compound: "CC[C@H](C)CCCN1CCC(NC(=O)[C@](O)(c2ccccc2)C2CCC2)CC1.Cl [Example 22, hydrochloride]"
  Recorded Measurement: "9.2 nM"
- Compound: "CC[C@H](C)CCCN1CCC(NC(=O)[C@](O)(c2ccccc2)C2CCCC2)CC1.Cl [Example 29, hydrochloride]"
  Recorded Measurement: "4.1 nM"

Query :: Please give the measured Ki for this compound: CC(C)=CCCN1CCC(NC(=O)C(O)(c2ccccc2)C2CCCC2)CC1 (stereo not drawn)
Result :: 3.1 nM

----------
# Study Target: UniProt P10980
# Sequence (P10980 1-466): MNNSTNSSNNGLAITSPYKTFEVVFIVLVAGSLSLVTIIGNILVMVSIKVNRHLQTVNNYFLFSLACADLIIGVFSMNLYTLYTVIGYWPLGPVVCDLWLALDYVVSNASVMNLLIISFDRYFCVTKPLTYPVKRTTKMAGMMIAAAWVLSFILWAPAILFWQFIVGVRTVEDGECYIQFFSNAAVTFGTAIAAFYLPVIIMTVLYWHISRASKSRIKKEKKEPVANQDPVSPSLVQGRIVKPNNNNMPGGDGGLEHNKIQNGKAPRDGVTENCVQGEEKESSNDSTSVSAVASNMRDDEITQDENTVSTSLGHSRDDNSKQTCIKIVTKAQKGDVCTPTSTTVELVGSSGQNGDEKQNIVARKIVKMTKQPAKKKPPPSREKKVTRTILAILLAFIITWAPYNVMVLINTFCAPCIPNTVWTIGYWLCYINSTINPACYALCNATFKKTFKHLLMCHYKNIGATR
Quantity Name: Ki (nM)
Give bare numbers, in nM.

As a guide, the following entries are already answered.
- Molecule: "CC[C@H](C)CCCN1CCC(NC(=O)[C@](O)(c2ccccc2)C2CCC2)CC1.Cl [Example 22, hydrochloride]"
  Recorded Measurement: 1400
- Molecule: "CC[C@H](C)CCCN1CCC(NC(=O)[C@](O)(c2ccccc2)C2CCCC2)CC1.Cl [Example 29, hydrochloride]"
  Recorded Measurement: 1100
- Molecule: "O=C(NC1CCN(CC2CCCCC2)CC1)C(O)(c1ccccc1)C1CCCC1 (stereo not drawn) [Example 32]"
  Recorded Measurement: 2300

Would you mind giving Ki for every molecule in the list below?
1. CC(C)=CCCN1CCC(NC(=O)C(O)(c2ccccc2)C2CCC2)CC1 (stereo not drawn) [Example 1]
2. CC(C)=CCCN1CCC(NC(=O)C(O)(c2ccccc2)C2CCCC2)CC1 (stereo not drawn) [Example 16]
3. CC(C)=CCCN1CCC(NC(=O)[C@](O)(c2ccccc2)C2CCCC2)CC1.O=C(O)/C=C/C(=O)O [Example 28, fumarate]

Result ::
860
302
190
